# % displacement at 10 nM listing for each entry below
- target.system: human cloned somatostatin receptor 1 (human) (UniProt P30872)
- Sequence (P30872 whole entry): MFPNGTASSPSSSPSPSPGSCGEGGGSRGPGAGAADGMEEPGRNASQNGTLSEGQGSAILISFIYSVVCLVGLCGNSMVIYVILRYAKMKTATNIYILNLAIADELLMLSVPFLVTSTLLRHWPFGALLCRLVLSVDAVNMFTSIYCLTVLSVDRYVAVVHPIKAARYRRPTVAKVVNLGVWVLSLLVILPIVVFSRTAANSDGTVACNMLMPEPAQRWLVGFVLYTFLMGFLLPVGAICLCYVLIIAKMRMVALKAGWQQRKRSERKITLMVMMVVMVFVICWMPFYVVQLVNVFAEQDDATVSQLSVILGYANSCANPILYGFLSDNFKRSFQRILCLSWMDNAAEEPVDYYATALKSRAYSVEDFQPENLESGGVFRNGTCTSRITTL
- method.summary: 125I-Tyr11-SRIF-14 displacement
*1 amine or outer side, *2 acyl side, *3 side chain or, on linkers, in order; H or OH if unused. Bridges are numbered along the chain shown (N, C = ends). [ ]: non-standard residue; d: D form. The star is where a group is joined. DOTA = O=C(O)CN1CCN(CC(=O)O)CCN(CC(=O)*)CCN(CC(=O)O)CC1; N(2-mercaptoethyl)Gly = O=C(CN(CCS[*:3])[*:1])[*:2]; Orn = NCCC[C@H](N)C(=O)O
Respond numerically; units are % and should not be typed.

binder	unit.symbol	meas.value
{DOTA}-[dF]E[Orn]CF[dW]KTF[N(2-mercaptoethyl)Gly]-NH2 (disulfide 4-10; SMILES C[C@@H](O)[C@@H]1NC(=O)[C@H](CCCCN)NC(=O)[C@@H](Cc2c[nH]c3ccccc23)NC(=O)[C@H](Cc2ccccc2)NC(=O)[C@@H](NC(=O)[C@H](CCCN)NC(=O)[C@H](CCC(=O)O)NC(=O)[C@@H](Cc2ccccc2)NC(=O)CN2CCN(CC(=O)O)CCN(CC(=O)O)CCN(CC(=O)O)CC2)CSSCCN(CC(N)=O)C(=O)[C@H](Cc2ccccc2)NC1=O) [SEQ ID NO: 23]	%	6

Consider now this further binder.
Kindly note the recorded % displacement at 10 nM for {DOTA}-F[dF]RCF[dW]KTF[N(2-mercaptoethyl)Gly]-NH2 (disulfide 4-10; SMILES C[C@@H](O)[C@@H]1NC(=O)[C@H](CCCCN)NC(=O)[C@@H](Cc2c[nH]c3ccccc23)NC(=O)[C@H](Cc2ccccc2)NC(=O)[C@@H](NC(=O)[C@H](CCCNC(=N)N)NC(=O)[C@@H](Cc2ccccc2)NC(=O)[C@H](Cc2ccccc2)NC(=O)CN2CCN(CC(=O)O)CCN(CC(=O)O)CCN(CC(=O)O)CC2)CSSCCN(CC(N)=O)C(=O)[C@H](Cc2ccccc2)NC1=O) [SEQ ID NO: 20] , which is 14
